tested on: UO-31 renal; assay: NCI-60 one-dose screen, 48 h; conditions: 10 µM unless noted
This is part of a sample that, as a whole, favours compounds with a hit. Of some 83,000 tested, about 20% had one in any assay. Activity calls are given as the source filed them. How the source made its calls: active means growth percent below 10; inactive means the rest.
Outcomes: TRUE = active, FALSE = inactive

INSERT INTO assay_data (compound, class_name) VALUES
  ('O=c1[nH]c(CCl)nc2c1cnn2-c1ccccc1', 'TRUE'),
  ('O=C(Nc1ccc(-c2nc(-c3cccc(O)c3)c(-c3ccnc(Br)c3)[nH]2)cc1)c1ccccc1', 'TRUE'),
  ('Cc1ccc(/C=C/CC(=O)Nc2ccc(C(=O)Nc3ccc(F)cc3N)nc2)cn1', 'FALSE'),
  ('CCN1C(=O)N(CC)C2C1NN=C1SC(c3ccccc3)=CC(=O)N12 (stereo not drawn)', 'FALSE'),
  ('COc1cc(/C=C/C(=O)c2ccc(N3CCN(C)CC3)cc2)ccc1F', 'FALSE'),
  ('COC(=O)c1nc(-c2ccc(C)cc2)oc1S(=O)(=O)N1CCN(c2oc(-c3ccccc3)nc2C#N)CC1', 'FALSE'),
  ('COc1ccc(/C=N\NC(=O)c2ccc3nc(-c4ccc(Br)cc4)[nH]c3c2)cc1', 'FALSE'),
  ('CC1OC(O[C@@H]2[C@H](O)C(CO)OC(O[C@H]3COC(O[C@H]4CC[C@]5(C)[C@H]6CC[C@]78OC[C@@]9(CC[C@](C)(C=O)C[C@H]97)C(=O)C[C@@]8(C)[C@]6(C)CC[C@H]5C4(C)C)[C@@H](O)[C@@H]3O)[C@H]2OC2OC[C@@H](O)[C@@H](O)[C@@H]2O)[C@@H](O)[C@@H](O)[C@H]1O (stereo partly drawn)', 'FALSE'),
  ('CS(=O)(=O)c1nccc(-c2c(-c3ccc(F)c(OCc4ccccc4)c3)nc3sccn23)n1', 'FALSE'),
  ('C=C1C(=O)O[C@@H]2/C=C(/C)C3=CC(=O)[C@@](C)(C[C@H](OC(=O)/C(C)=C\C)[C@@H]12)O3', 'TRUE'),
  ('Cc1nc(-c2cc3ccccc3c(N3CCN(C)CC3)n2)cs1', 'FALSE'),
  ('COc1cc2c3c(n(CCCN4CCC[C@H]4C(N)=O)c(=O)c2cc1OC)-c1cc2c(cc1C3=O)OCO2', 'FALSE'),
  ('Oc1ccc(CSc2nnc(-c3ccc(Cl)cc3)o2)c2cccnc12', 'TRUE'),
  ('CCOC(=O)C1=C(C)Nc2nnc(Nc3ccccc3)n2C1c1ccccc1 (stereo not drawn)', 'FALSE'),
  ('O=C(N/N=C\c1ccc(Cl)cc1)c1ccc2nc(-c3ccc(Br)cc3)[nH]c2c1', 'FALSE'),
  ('COc1cc(CNC(=O)/C=C/c2ccccc2)ccc1OCC(=O)NO', 'FALSE'),
  ('CCNCCCn1c2c(c3cc(OC)c(OC)cc3c1=O)C(=O)c1cc(OC)cnc1-2', 'FALSE'),
  ('COc1ccc(-c2nnc(SCc3ccc(O)c4ncccc34)n2-c2ccccc2)cc1', 'TRUE');
